molecular target: mMC1R (Mus musculus); assay: AlphaScreen cAMP agonist assay, HEK293 cells stably expressing mMC1R; conditions: at 1 mM; not enough stimulation to determine EC50
Sequence (Q01727 whole entry): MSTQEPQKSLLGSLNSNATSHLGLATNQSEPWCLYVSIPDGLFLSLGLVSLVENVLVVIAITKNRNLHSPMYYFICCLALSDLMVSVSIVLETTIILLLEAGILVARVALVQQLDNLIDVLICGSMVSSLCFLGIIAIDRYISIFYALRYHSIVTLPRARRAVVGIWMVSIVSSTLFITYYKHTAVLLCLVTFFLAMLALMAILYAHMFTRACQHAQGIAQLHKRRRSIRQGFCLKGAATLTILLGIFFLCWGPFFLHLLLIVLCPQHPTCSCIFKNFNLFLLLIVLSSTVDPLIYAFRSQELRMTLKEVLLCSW
Attribute measured: mMC1R percent maximal stimulatory response (compared to NDP-MSH) (% @ 1 mM)

CC(C)CC1CNC(=N)N1CC1CCCN1CC(C)N1CC(C(C)O)N(CC2CCC(C(C)(C)C)CC2)C1=N (stereo not drawn) : 65
CC(C)C[C@@H]1CNC(=N)N1C[C@@H]1CCCN1CCN1C[C@@H]([C@H](C)O)N(CC2CCC(C(C)(C)C)CC2)C1=N (stereo partly drawn) : 85
CC(C)C[C@H]1CNC(=N)N1C[C@H]1CCCN1C[C@H](Cc1ccccc1)N1C[C@H]([C@@H](C)O)N(CC2CCC(C(C)(C)C)CC2)C1=N (stereo partly drawn) : 75
CCC[C@H]1CN([C@@H](CC2CCCCC2)CN2CCC[C@@H]2CN2C(=N)NC[C@@H]2C(C)C)C(=N)N1CC1CCC(C(C)(C)C)CC1 (stereo partly drawn) : 65

[1] CC(O)C1CNC(=N)N1CC1CCC(C(C)(C)C)CC1 (stereo not drawn)
[2] CC(C)C[C@@H]1CNC(=N)N1C[C@@H]1CCCN1C[C@@H](Cc1ccccc1)N1CCNC1=N
query: For this pair, 1 and 2 , which shows a numerically higher mMC1R percent maximal stimulatory response (compared to NDP-MSH)? State the label of the item chosen.
result: 1
(1: 70 % @ 1 mM, 2: 40 % @ 1 mM)

* * *

target: mMC5R (Mus musculus); assay: AlphaScreen cAMP agonist assay, HEK293 cells stably expressing mMC5R
Sequence (P41149 whole entry): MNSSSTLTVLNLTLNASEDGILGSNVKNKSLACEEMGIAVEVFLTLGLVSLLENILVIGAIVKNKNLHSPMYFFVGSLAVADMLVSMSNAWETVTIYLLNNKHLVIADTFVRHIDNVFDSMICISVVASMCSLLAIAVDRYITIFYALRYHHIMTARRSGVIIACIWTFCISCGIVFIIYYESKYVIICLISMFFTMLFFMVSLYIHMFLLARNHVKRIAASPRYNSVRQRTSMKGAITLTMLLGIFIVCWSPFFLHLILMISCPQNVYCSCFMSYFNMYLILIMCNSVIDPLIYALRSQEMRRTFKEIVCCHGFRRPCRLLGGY
pEC50: −log10 of the molar value.
Attribute measured: pEC50

Example entries and their recorded answers appear below.
CC(C)C[C@H]1CNC(=N)N1C[C@H]1CCCN1C[C@H](Cc1ccccc1)N1C[C@@H]([C@H](C)O)N(CC2CCC(C(C)(C)C)CC2)C1=N (stereo partly drawn) : 5.54
CC(C)CC1CNC(=N)N1CC1CCCN1CC(Cc1ccc2ccccc2c1)N1CC(C(C)O)N(CC2CCC(C(C)(C)C)CC2)C1=N (stereo not drawn) : 5.10

[A] CC(C)C[C@@H]1CNC(=N)N1C[C@H]1CCCN1C[C@@H](Cc1ccccc1)N1C[C@H]([C@@H](C)O)N(CC2CCC(C(C)(C)C)CC2)C1=N (stereo partly drawn)
[B] C[C@H](O)[C@@H]1CN([C@H](Cc2ccccc2)CN2CCC[C@H]2CN2CCNC2=N)C(=N)N1CC1CCC(C(C)(C)C)CC1 (stereo partly drawn)
[C] CC(C)C[C@H]1CNC(=N)N1C[C@@H]1CCCN1C[C@@H](Cc1ccccc1)N1C[C@@H]([C@H](C)O)N(CC2CCC(C(C)(C)C)CC2)C1=N (stereo partly drawn)
[D] CC(C)C[C@H]1CNC(=N)N1C[C@@H]1CCCN1C[C@H](Cc1ccccc1)N1C[C@@H]([C@H](C)O)N(CC2CCC(C(C)(C)C)CC2)C1=N (stereo partly drawn)
query: Order the records by pEC50, with each subsequent value no larger than the one before. State the ranking by listing the labels in the requested order.
result: B, C, A, D
(B: 6.32, C: 6.05, A: 5.24, D: 4.35)

* * *

target: UniProt:P56450; test: cell-based
Sequence (P56450 whole entry): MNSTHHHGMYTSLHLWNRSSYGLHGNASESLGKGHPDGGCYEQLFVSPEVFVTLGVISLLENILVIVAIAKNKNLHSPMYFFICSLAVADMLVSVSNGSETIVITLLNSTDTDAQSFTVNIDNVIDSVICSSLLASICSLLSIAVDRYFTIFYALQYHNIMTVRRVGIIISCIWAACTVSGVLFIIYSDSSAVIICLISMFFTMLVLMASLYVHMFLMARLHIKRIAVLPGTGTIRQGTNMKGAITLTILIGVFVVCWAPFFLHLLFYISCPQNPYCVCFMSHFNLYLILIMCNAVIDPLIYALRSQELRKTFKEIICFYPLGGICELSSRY
Attribute measured: Kb (nM)

CCC[C@@H]1CN([C@H](CC2CCCCC2)CN2CCC[C@H]2CN2C(=N)NC[C@@H]2C(C)C)C(=N)N1CC1CCC(C(C)(C)C)CC1 (stereo partly shown) [Compound 2718.053] : 1260
CC(C)C[C@@H]1CNC(=N)N1C[C@@H]1CCCN1C[C@@H](CC1CCCCC1)N1CCN(CC2CCC(C(C)(C)C)CC2)C1=N (stereo partly shown) [Compound 2718.025] : 794

[A] CCC[C@@H]1CN([C@H](CC2CCCCC2)CN2CCC[C@H]2CN2CCNC2=N)C(=N)N1CC1CCC(C(C)(C)C)CC1 (stereo partly shown) [Compound 2718.029]
[B] CC(C)C[C@@H]1CNC(=N)N1C[C@@H]1CCCN1C[C@@H](Cc1ccccc1)N1CCN(CC2CCC(C(C)(C)C)CC2)C1=N (stereo partly shown) [Compound 2718.022]
query: Hey, between A and B which has a smaller measured Kb? Your choice should be expressed through its label.
result: B
(B: 794 nM, A: 1580 nM)
